System: M14
test.protocol: NCI tumour cell line growth inhibition, 48 h
Calls of active or inactive are those of the source. Cut-off read from the data, not from the text of the source: active = GI50 up to about 1.1 µM and inactive = higher.
Write down the outcome that applies. Available outcomes: Y = active, N = inactive

# count of solved cases: 4
INSERT INTO assay_data (compound, discrete_label) VALUES
  ('Nc1ccc(N(S(=O)(=O)c2ccccc2)S(=O)(=O)c2ccccc2)c(Cl)c1', 'N'),
  ('CC(Cc1ccc(O)cn1)(NC(=O)c1ccccc1)C(=O)O (stereo not drawn)', 'N'),
  ('Cc1ccc(/C=C2\NC(=S)N(CN3CCCCC3)C2=O)cc1', 'N'),
  ('O=C1/C(=C\c2cccc(Oc3ccccc3)c2)SC(c2ccccc2)N1c1ccccc1Cl (stereo not drawn)', 'N');

Returns: the outcome recorded for O=C(CNC(=O)OCc1ccccc1)Oc1ccccc1 in this assay.
N

Also COC1CC(Br)(C#N)C1 (stereo not drawn) ?
N

Also CC(CC(=O)O)(CC(=O)O)c1ccccc1 ?
N

Also O=C(c1cc(Br)ccc1O)c1cc(Br)ccc1O ?
N

Also CC(C)N1[C@@H]2CCCC[C@H]2N(C(C)C)P1(=O)C(=O)/C=C/c1ccccc1 ?
N

Also O=C(NO)c1ccc([N+](=O)[O-])cc1 ?
N

Also O=[N+]([O-])c1ccc(-c2cnc3ccccn23)cc1 ?
N

Also N#Cc1nc(C(=O)c2ccccc2)oc1N ?
N

Also C#CCN(Cc1ccc2nc(OC)c(OC)nc2c1)c1cc(OC)c(OC)c(OC)c1 ?
N

====

Quick reference: GI50 of the listed items.
Test system: SR
test.protocol: NCI tumour cell line growth inhibition, 48 h
The source made the active and inactive calls. No stated cut-off is given here; in the data, active = GI50 up to about 1.1 µM and inactive = higher.

INSERT INTO measurements (compound, experimental_value) VALUES
  ('COc1cc(C(C)O)c[n+](CCc2c[nH]c3ccccc23)c1 (centres undefined)', '> 100 µM (inactive)'),
  ('O=C(Nc1ccccc1F)c1cc2ccc(O)cc2o/c1=N\c1ccccc1F', '1.87 µM (inactive)'),
  ('CN(C)c1ccc(C(c2ccc(N(C)C)cc2)c2ccc([N+](=O)[O-])cc2)cc1', '90.6 µM (inactive)'),
  ('C[N+](C)(C)CC(=O)N/N=C/c1oc(-c2c(O)ccc3ccccc23)c(-c2c(O)ccc3ccccc23)c1[N+](=O)[O-]', '15.2 µM (inactive)'),
  ('COc1nc2c(c(=O)n1C)NC(C(O)C(O)CO)C=N2 (centres undefined)', '> 10 µM (inactive)');

Any idea what its GI50 is? The compound is COc1ccc(N2C(=O)/C(=C\c3cc(OC)c(OC)c(OC)c3)S(=O)(=O)C2c2ccccc2)cc1 (centres undefined)
11 µM (inactive)

Also COc1ccc(N2C(=O)/C(=C\c3cccc(Oc4ccccc4)c3)SC2c2ccccc2)cc1 (centres undefined) ?
16.7 µM (inactive)

Also CC(C(=O)NCCNC(=O)CCCC(=O)N(C)O)C(=O)NCCNC(=O)CCCC(=O)N(C)O ?
> 100 µM (inactive)

Also CS(=O)(=O)CC1=Nc2nnc(CCCCCCCc3nnc4n3C(=O)C(CS(C)(=O)=O)=N4)n2C1=O ?
> 100 µM (inactive)

====

Test system: KM12
test.protocol: NCI tumour cell line growth inhibition, 48 h
Active and inactive are the calls of the source. No stated cut-off is given here; in the data, active = GI50 up to about 1.1 µM and inactive = higher.
measurement.name: GI50

Sample records with GI50:
INSERT INTO measurements (molecule, experimental_value) VALUES
  ('CC(=O)OC12c3ccccc3C(c3ccccc31)C1C(=O)N(c3ccccc3O)C(=O)C12 (centres undefined)', '92.7 µM (inactive)'),
  ('Cc1ccc(C(=O)NN=C(/N=N/c2cccc(C)c2)c2ccc(N(C)C)cc2)cc1', '> 100 µM (inactive)'),
  ('N#CCSc1c(-c2ccccc2)c(=O)n(-c2ccccc2)c(=S)n1-c1ccccc1', '> 100 µM (inactive)'),
  ('CCOC(=O)C(=Cn1c(=S)[nH]c2ccc([N+](=O)[O-])cc21)C(=O)OCC', '> 100 µM (inactive)'),
  ('CC(=O)OCCOCNC(=S)N/N=C(\C)c1cccs1', '> 100 µM (inactive)'),
  ('COc1ccc(-c2ccccc2)c2[nH]c3c(c12)CCNC3=O', '> 100 µM (inactive)'),
  ('Cc1ccccc1NC(=O)C(=O)CC(=O)c1c(C)[n+]([O-])c2ccccc2[n+]1[O-]', '59.8 µM (inactive)'),
  ('O=C(NCCCCN(CCCNC(=O)C(F)(F)F)Cc1ccc2ccccc2c1)C(F)(F)F', '17.5 µM (inactive)');

Proceeding to the next molecule to report its GI50.
Any idea what its GI50 is? The molecule is COc1cc(C(C)O)c[n+](CCc2c[nH]c3ccccc23)c1 (centres undefined)
> 100 µM (inactive)

====

Tested on: 786-0
test.protocol: NCI tumour cell line growth inhibition, 48 h
The source made the active and inactive calls. No stated cut-off is given here; in the data, active = GI50 up to about 1.1 µM and inactive = higher.
Write down the outcome that applies. Available outcomes: class 1 = active, class 0 = inactive

# count of solved cases: 3
INSERT INTO assay_data (molecule, discrete_label) VALUES
  ('CC1=C(C)CC2(SC1)C(=O)c1ccccc1C2=O', 'class 0'),
  ('COc1nc2c(c(=O)n1C)NC(C(O)C(O)CO)C=N2 (stereo not given)', 'class 0'),
  ('C/C(=N\Nc1nc2ccccc2s1)c1ccncn1', 'class 1');

Returns: the outcome recorded for C[N+]1([O-])C2CCC1CC(OC(=O)C(CO)c1ccccc1)C2 (stereo not given) in this assay.
class 0

Also Cc1ccc(N2C(=O)C(Cl)=C(Cl)C2=O)cc1 ?
class 0

Also CCCNC(=O)Nc1ccc2c(c1)Cc1cc(N(CCCl)CCCl)ccc1-2 ?
class 0

Also CC(=O)NC(CCCCNC(=O)N(CCCl)N=O)C(=O)NCc1ccccc1 (stereo not given) ?
class 0

Also Cc1nnc2n1N=C(c1ccccc1)C(c1ccccc1)S2 (stereo not given) ?
class 0

Also Cc1ccc(C(=O)NN=C(/N=N/c2cccc(C)c2)c2ccc(N(C)C)cc2)cc1 ?
class 0

Also N=C(N)SC(c1ccccc1)c1ccccc1 ?
class 0

Also C/C(=N\NC(=O)CC(=O)N(C(=O)c1ccc(Cl)cc1)c1ccc(C)cc1)c1ccccc1O ?
class 0

Also Cc1nc2cccc([N+](=O)[O-])c2n1CCCN(C)C ?
class 0

Also CN1C(=O)C23CCCCC2CC1(c1ccccc1)S3 (stereo not given) ?
class 0

====

Tested on: 786-0
test.protocol: NCI tumour cell line growth inhibition, 48 h
Calls of active or inactive are those of the source. Rule as the data show it: active = GI50 up to about 1.1 µM and inactive = higher.
Write down the outcome that applies. Available outcomes: active, inactive

# count of solved cases: 3
INSERT INTO measurements (compound, discrete_label) VALUES
  ('NC(=O)/C=C/C(=O)O', 'inactive'),
  ('COC(=O)C1CCC(=O)N1C(c1ccc(OC)cc1)c1ccc(OC)cc1 (stereo unspecified)', 'inactive'),
  ('COC1OC(CO)C(O)C(OC(C)=O)C1NC(=O)N(CCCl)N=O (stereo unspecified)', 'inactive');

Returns: the outcome recorded for N#Cc1cc(-c2nc3cc(F)ccc3s2)ccc1N in this assay.
inactive

Also C=C1C(=O)O[C@H]2[C@H]1CC(=O)/C(C)=C/CC[C@@]1(C)O[C@@H]21 ?
active

Also O=c1c2cc(S(=O)(=O)Nc3ccc(Cl)cc3Cl)ccc2ncn1NS(=O)(=O)c1cccc2ccccc12 ?
inactive

Also O/N=C1\CSc2ccccc2C1 ?
inactive

====

Tested on: SK-MEL-5
test.protocol: NCI tumour cell line growth inhibition, 48 h
Activity calls are given as the source filed them. Cut-off read from the data, not from the text of the source: active = GI50 up to about 1.1 µM and inactive = higher.
Write down the outcome that applies. Available outcomes: active, inactive

# count of solved cases: 5
INSERT INTO assay_data (compound, discrete_label) VALUES
  ('C[C@@H]1OC(=O)C[C@H]2CC(=O)N(CCC3CN(S(=O)(=O)C(F)(F)F)c4ccc(Cc5ccc6c(c5)C(CCN5C[C@H]7[C@@H](CC(=O)O[C@H]7C)CC5=O)CN6S(=O)(=O)C(F)(F)F)cc43)C[C@@H]21 (stereo partly drawn)', 'inactive'),
  ('Cc1c(NC(=S)NC(=O)c2ccc([N+](=O)[O-])cc2)c(=O)n(-c2ccccc2)n1C', 'inactive'),
  ('Cc1ccc(N2C(=O)C(Cl)=C(Cl)C2=O)cc1', 'inactive'),
  ('COc1ccc(/C=N/n2c(-c3ccccc3)n[nH]c2=O)c(OC)c1', 'inactive'),
  ('C=C1C(=O)O[C@H]2[C@H]1CC(=O)/C(C)=C/CC[C@@]1(C)O[C@@H]21', 'active');

Returns: the outcome recorded for O=C(c1ccco1)N1CCN(C(=O)c2ccco2)C1=S in this assay.
inactive

Also COC(=O)[C@]1(C)CCCC2(C)C3=C(CCC21)CC1(CC3)SCCS1 (stereo partly drawn) ?
inactive

Also CC(=O)Nc1ccc(/C=C(\NC(=O)c2ccccc2)c2nc3ccc4c(c3[nH]2)C(=O)c2ccccc2C4=O)cc1 ?
inactive

Also CN1C2(c3ccccc3)C(C(=O)c3ccccc3)=C(C(=O)c3ccccc3)C1(c1ccccc1)c1c(-c3ccccc3)sc(-c3ccccc3)c12 ?
inactive

Also COc1ccc2[nH]c3c(C)c4ccncc4c(C)c3c2c1 ?
inactive
